# measurement notes: Stability of compound was determined by its half life period
# Format: physicochemical
observable: half-life (h)

compound_smiles=CC(C)[C@H](NC(=O)OCc1ccccc1)C(=O)N[C@@H](CC(=O)O)C(=O)COC1=C(c2ccccc2)C(=O)NC1 observable=half-life val=95
compound_smiles=O=C(O)C[C@H](NC(=O)OCc1ccccc1)C(=O)COC1=C(c2ccccc2)C(=O)CC1 observable=half-life val=3.9
compound_smiles=O=C(O)C[C@H](NC(=O)OCc1ccccc1)C(=O)COC1=C(c2ccccc2)C(=O)OC1 observable=half-life val=0.86
compound_smiles=O=C(O)C[C@H](NC(=O)OCc1ccccc1)C(=O)COC1=C(Cc2ccccc2)C(=O)OC1 observable=half-life val=9.8
compound_smiles=CC(C)[C@H](NC(=O)OCc1ccccc1)C(=O)N[C@@H](C)C(=O)N[C@@H](CC(=O)O)C(=O)COC1=C(Cc2ccccc2)C(=O)OC1 observable=half-life val=20
